Molecular target: Angiotensin-converting enzyme (Cavia porcellus)
Experiment: Inhibition of guinea pig angiotensin I converting enzyme
Listing: log10(IC50) of selected compounds
Assay Metric: log10(IC50) (log10 of the value in nM)

CC(=O)SCC(C)C(=O)N1Cc2ccccc2C1C(=O)O (mixture of isomers) : 4.38
CCOC(=O)[C@H](CCc1ccccc1)N[C@@H](C)C(=O)N1Cc2ccccc2[C@H]1C(=O)O : 1.64
CC(NC(CCc1ccccc1)C(=O)O)C(=O)N1Cc2ccccc2C1C(=O)O (centres undefined) : 0.49
CCOC(=O)C(CCc1ccccc1)NC(C)C(=O)N1Cc2cc(OC)c(OC)cc2CC1C(=O)OCC (centres undefined) : 2.72
CCOC(=O)C(CCc1ccccc1)NC(C)C(=O)N1Cc2cc(OC)c(OC)cc2CC1C(=O)OCc1ccccc1 (centres undefined) : 2.48
CC(CS)C(=O)N1CCc2ccccc2C1 (centres undefined) : 4.68
CC(=O)SCCC(=O)N1Cc2ccccc2C1C(=O)O (centres undefined) : 4.34
CC(NC(CCc1ccccc1)C(=O)O)C(=O)N1CCc2ccccc2C1C(=O)O (centres undefined) : 0.76
O=C(O)C1c2ccccc2CN1C(=O)CCS (centres undefined) : 4.76
CC(=O)SCC(C)C(=O)N1Cc2ccccc2CC1C(=O)O (racemic) : 2.11
CCOC(=O)C(CCc1ccccc1)NC(C)C(=O)N1Cc2ccccc2CC1C(=O)OCC (centres undefined) : 2.64
CC(=O)SCC(C)C(=O)N1CCc2ccccc2C1 (centres undefined) : 4.69
